// data source = PubChem BioAssay AID651677

# experimental.system: Perilipin-5 (Homo sapiens) + 1-acylglycerol-3-phosphate O-acyltransferase ABHD5 (Homo sapiens) (UniProt Q00G26+Q8WTS1)
# Sequence (Q00G26 whole entry, looked up): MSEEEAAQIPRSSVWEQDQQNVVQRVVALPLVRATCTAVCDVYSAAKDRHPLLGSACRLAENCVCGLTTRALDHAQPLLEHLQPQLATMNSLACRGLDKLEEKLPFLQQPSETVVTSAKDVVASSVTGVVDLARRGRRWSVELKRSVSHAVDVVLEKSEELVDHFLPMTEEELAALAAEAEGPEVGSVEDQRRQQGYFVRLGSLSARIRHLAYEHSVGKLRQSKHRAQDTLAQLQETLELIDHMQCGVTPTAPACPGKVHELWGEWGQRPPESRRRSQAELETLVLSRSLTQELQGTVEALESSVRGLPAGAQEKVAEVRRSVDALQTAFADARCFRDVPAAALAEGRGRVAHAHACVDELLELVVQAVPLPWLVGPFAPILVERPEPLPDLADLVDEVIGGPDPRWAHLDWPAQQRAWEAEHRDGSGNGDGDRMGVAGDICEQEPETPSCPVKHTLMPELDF
# Sequence (Q8WTS1 whole entry, looked up): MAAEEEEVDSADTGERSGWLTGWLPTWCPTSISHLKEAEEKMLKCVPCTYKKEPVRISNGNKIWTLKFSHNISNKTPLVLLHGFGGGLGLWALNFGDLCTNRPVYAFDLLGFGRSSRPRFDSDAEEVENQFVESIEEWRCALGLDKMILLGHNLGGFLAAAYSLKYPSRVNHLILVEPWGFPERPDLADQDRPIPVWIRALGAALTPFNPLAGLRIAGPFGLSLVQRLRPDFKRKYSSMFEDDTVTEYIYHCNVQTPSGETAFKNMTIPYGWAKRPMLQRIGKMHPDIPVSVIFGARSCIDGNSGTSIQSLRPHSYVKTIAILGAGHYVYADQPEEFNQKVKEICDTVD
# experiment.notes: ABHD5-PLIN5 interaction inhibitors, dose response, biochemical, luminescence (AID 651677)
Calls of active or inactive are those of the source. How the calls were made is not given here.
measurement.type: IC50

1. CCC(C)NC(=O)Nc1ccc2c(c1)N(C)C(=O)c1ccccc1S2 (stereo not given): 4.97 µM
2. CC1=CC2C(C(O)CC3(C)C2CC(C)C32OCOC23COCO3)C2(C)C/C(=C\O)C(=O)C=C12 (stereo not given): 3.27 µM
3. CN(C)CCCNC(=O)c1ccc(-c2nc(-c3ccc(Cl)cc3)cs2)cc1: inactive
4. CC(=O)Cc1cc(O)c2ccccc2c1OC(=O)c1ccc(Br)cc1: 2.52 µM
5. CCN1C/C(=C/c2ccc(OC)c(O)c2)C(=O)/C(=C/c2ccc(OC)c(O)c2)C1: 5.66 µM
6. CCCCCNC(=O)C(c1cccc2ccccc12)n1c(=O)c(-c2ccco2)nc2ccccc21 (stereo not given): 1.57 µM
7. Cc1ccc(CC2(OCCN(C)C)CCC(C(C)(C)C)CC2)cc1 (stereo not given): 8.61 µM
8. CCc1nnc(NC(=O)c2nc(S(=O)(=O)Cc3cccc(C)c3)ncc2Cl)s1: 3.33 µM
9. O=C(NC1CCCCC1)C(c1ccc(-c2ccccc2)cc1)n1c(=O)c(-c2ccco2)nc2ccccc21 (stereo not given): 1.54 µM
10. O=c1[nH]c(C2CCN(S(=O)(=O)c3ccc(F)cc3)CC2)nc2c1nnn2Cc1ccc2c(c1)OCCO2: inactive
11. COc1cccc2sc(N(CCCN(C)C)C(=O)COc3ccc(Cl)cc3)nc12: inactive
12. CN1CCC(=C2c3ccccc3CC(=O)c3sccc32)CC1: inactive
13. CC(=O)Oc1ccc(C23c4ccccc4C2(OC(C)=O)c2cc(OC(C)=O)ccc23)cc1 (stereo not given): 0.72 µM
14. Cc1cccc(NC(=O)CSc2nnc(-c3ccco3)c(-c3ccco3)n2)c1: 1.05 µM
15. O=C1CC(c2ccc(Cl)cc2)Oc2ccc(Cl)cc21 (stereo not given): 2.84 µM
16. CCCCOC(=O)Nc1cc(C(=O)OC)ccc1C(=O)OC: 6.7 µM
17. Cc1ccc(/C(O)=C2/C(=O)C(=O)OC2c2ccc(Cl)cc2)cc1 (stereo not given): 9.72 µM
18. O=C(NC1CCCCC1)C(c1ccnc2ccccc12)n1c(=O)c(-c2ccco2)nc2ccccc21 (stereo not given): 1.66 µM
19. COc1ccc(-c2cc(N)n(S(=O)(=O)c3c(F)c(F)c(F)c(F)c3F)n2)cc1OC: 6.83 µM
20. O=CC1=C(c2ccccc2)Oc2ccccc2O1: 3.52 µM
21. COc1ccc(C(C(=O)NC2CCCCC2)n2c(=O)c(-c3ccco3)nc3ccccc32)cc1 (stereo not given): 1.14 µM
22. O=S(=O)(NC1=NCCCCC1)c1ccc2sc(NS(=O)(=O)c3ccc4ccccc4c3)nc2c1: inactive
23. COc1ccccc1/C=C/C(=O)c1ccccc1: 6.63 µM
24. O=C(Nc1ccc2c(c1)OCCO2)C(c1ccnc2ccccc12)n1c(=O)c(-c2ccco2)nc2ccccc21 (stereo not given): inactive
25. CCOC(=O)C1CCCN(C(=O)c2cc(Nc3ccc(OC)cc3)nc3ccccc23)C1 (stereo not given): inactive
26. CCCCCNC(=O)C(c1ccc(C#N)cc1)n1c(=O)c(-c2ccco2)nc2ccccc21 (stereo not given): 3.15 µM
27. COc1ccc(NC(=O)C(c2ccnc3ccccc23)n2c(=O)c(-c3ccco3)nc3ccccc32)cc1 (stereo not given): 8.17 µM
28. O=C(NC1CCCCC1)C(c1cccc2ccccc12)n1c(=O)c(-c2ccco2)nc2ccccc21 (stereo not given): 0.94 µM
29. CCN(CCCc1ccccc1)CCCc1ccccc1: 2.66 µM
30. CN(C)CCCN(C(=O)CCc1ccccc1)c1nc2ccc(Cl)cc2s1: 7.37 µM
31. CC1(C)C2CCC(CN=C(N)CSS(=O)(=O)O)C1C2 (stereo not given): 4.27 µM
32. CCC1(C)N=C(c2ccc3c(c2)OCO3)CC(c2ccccc2O)N1 (stereo not given): 1.57 µM
33. C#CCN(C[C@@H]1[C@@H](OC(=O)NCCCCCC)[C@@H](OC(=O)NCCCCCC)Cn2c(=O)ccc(=O)n21)S(=O)(=O)c1ccc(C)cc1: 4.74 µM
34. Cc1cccc(C)c1NC(=O)C(c1ccc(C#N)cc1)n1c(=O)c(-c2ccco2)nc2ccccc21 (stereo not given): 2.45 µM
35. CCOC(=O)C1C(OC(=O)c2ccccc2)CC2CCC1N2C (stereo not given): 9.39 µM
36. O=C(NC1CCCCC1)C(c1ccc(C(F)(F)F)cc1)n1c(=O)c(-c2ccco2)nc2ccccc21 (stereo not given): 1.25 µM
37. O=C1NC(=S)NC(=O)C12C(c1ccccc1)NC(=S)NC2c1ccccc1 (stereo not given): 4.39 µM
38. CC(=O)Nc1ccc(S(=O)(=O)N2c3ccc(F)cc3CCC2C)cc1 (stereo not given): inactive
39. CC1Sc2ccc(S(=O)(=O)N3CCC(C(=O)NCc4ccc(Cl)cc4)CC3)cc2NC1=O (stereo not given): inactive
40. O=C(NC1CCCCC1)C(c1ccccc1F)n1c(=O)c(-c2ccco2)nc2ccccc21 (stereo not given): 1.26 µM

###

# experimental.system: Perilipin-5 (Homo sapiens) + 1-acylglycerol-3-phosphate O-acyltransferase ABHD5 (Homo sapiens) (UniProt Q00G26+Q8WTS1)
# experiment.notes: ABHD5-PLIN5 interaction inhibitors, dose response, biochemical, luminescence (AID 651677)
measurement.type: IC50

1) CC(=O)Nc1ccc(OCc2cn(CC(=O)c3ccc(O)cc3)nn2)cc1: 2.32 µM
2) N#Cc1ccc(C(C(=O)NCc2ccccc2)n2c(=O)c(-c3ccco3)nc3ccccc32)cc1 (stereo unspecified): 1.56 µM
3) CC(C)(C)NC(=O)C(c1ccc(C(F)(F)F)cc1)n1c(=O)c(-c2ccco2)nc2ccccc21 (stereo unspecified): 1.33 µM
4) O=C1C(=O)c2c(C(=O)c3ccccc3)coc2-c2ccccc21: 2.93 µM
5) CC(O)CC(=O)OC[C@]12CC[C@H]3[C@@](C)(CC[C@H]4C(C)(C)CCC[C@]34C)[C@@H]1CC(C1=CC(=O)OC1O)O2 (stereo partly specified): 0.857 µM
6) Cc1ccc(C(=O)/C=C/c2cc(Br)cc(Br)c2O)o1: 5.54 µM
7) CCN1CCN(Cc2ccc(NC(=O)c3ccc(C)c(/C=C/c4cnc(Nc5cc(N6CCNCC6)nc(C)n5)cn4)c3)cc2C(F)(F)F)CC1: 2.58 µM
8) CC(C)(C)NC(=O)C(c1ccc(C#N)cc1)n1c(=O)c(-c2ccco2)nc2ccccc21 (stereo unspecified): 1.85 µM
9) N#Cc1ccc(C(C(=O)Nc2ccc3c(c2)OCCO3)n2c(=O)c(-c3ccco3)nc3ccccc32)cc1 (stereo unspecified): 7.27 µM
10) CCCNC(=O)Nc1ccc2c(c1)N(C)C(=O)c1ccccc1S2: 8.61 µM
11) CCOC(=O)/C(=C\c1ccc(Cl)cc1)c1nc2sc(C)c(C)c2c(=O)[nH]1: 0.75 µM
12) Cc1ccc(O)c(C(=O)C=Cc2ccccc2)c1: 3.14 µM
13) CN(C)CCN(Cc1ccco1)c1ccccn1: 7.75 µM
14) O=C1/C(=C/c2cccnc2)CC/C1=C\c1cccnc1: 3.31 µM
15) O=C(O)CC(O)(CC(=O)O)C(=O)O: 5.63 µM
16) N#Cc1ncc(Cc2ccccc2)nc1C#N: 8.58 µM
17) COc1cc(C)c2sc3ccccc3c(=O)c2c1NCCN(C)C: 3.84 µM
18) O=C(/C=C/c1ccc2c(c1)OCCCO2)c1ccccc1O: 5.65 µM
19) CC(=O)Oc1c(Cl)c(N2CCOCC2)c(OC(C)=O)c2ccccc12: 4.28 µM
20) Cc1cc(C)c2nc(NNC(=O)c3ccc(S(=O)(=O)N4CCCC(C)C4)cc3)sc2c1 (stereo unspecified): 5.27 µM
21) CC(=O)C1=C(c2cccc([N+](=O)[O-])c2)N(C(C)=O)n2c(C)nnc2S1: 2.86 µM

###

# experimental.system: Perilipin-5 (Homo sapiens) + 1-acylglycerol-3-phosphate O-acyltransferase ABHD5 (Homo sapiens) (UniProt Q00G26+Q8WTS1)
# experiment.notes: ABHD5-PLIN5 interaction inhibitors, dose response, biochemical, luminescence (AID 651677)
The source made the active and inactive calls. No rule for the calls is given here.
measurement.type: IC50

1. COCCN(CCOC)c1nc(N)c2c(N)nc3c(c2c1C#N)CC(=O)N3Cc1ccc(Cl)cc1: inactive
2. Cc1nc(-c2ccccc2)sc1C(=O)/C=C/c1ccccc1: 2790 nM
3. COc1ccc(C(C(=O)Nc2c(C)cccc2C)n2c(=O)c(-c3ccco3)nc3ccccc32)cc1 (stereo not given): 2380 nM
4. Cc1ccc(SC2=C(Sc3ccc(C)cc3)C(=O)c3ccccc3C2=O)cc1: 1000 nM
5. COCCNC(=O)/C(C#N)=C/c1cccc(/C=C(\C#N)C(=O)NCCOC)c1: 727 nM
6. CC(C)(C)NC(=O)C(c1ccccc1)n1c(=O)c(-c2ccco2)nc2ccccc21 (stereo not given): 2160 nM
7. Cc1cccc(C)c1NC(=O)C(c1ccccc1)n1c(=O)c(-c2ccco2)nc2ccccc21 (stereo not given): 5190 nM
8. CC1=CC(C)(C)Nc2ccc(OC(=O)CN3C(=O)c4cccc5cccc(c45)C3=O)cc21: 6890 nM
9. Cc1ccc(C(=O)c2coc3c2C(=O)C(=O)c2ccccc2-3)cc1: 2530 nM
10. CCOC1=CC2=C(C(=O)C(Cl)=CC2=O)[C@@H]2CN(S(=O)(=O)c3ccc(C)cc3)[C@@H](c3ccccc3)[C@H]12: 941 nM
11. C#CCN(C[C@@H]1[C@@H](OC(=O)NC2CCCC2)[C@@H](OC(=O)NC2CCCC2)Cn2c(=O)ccc(=O)n21)S(=O)(=O)c1ccc(C)cc1: 3690 nM
12. CC1CCN(S(=O)(=O)c2ccc(NC(=O)Cc3cccs3)cc2)CC1: inactive
13. CCN(CC)CCNC(=O)c1ccc(NC(=O)c2cn(-c3ccccc3)nc2-c2cccs2)cc1: inactive
14. COc1ccc(C(C(=O)NC(C)(C)C)n2c(=O)c(-c3ccco3)nc3ccccc32)cc1 (stereo not given): 1690 nM
15. CC(=O)Cc1cc(O)c2ccccc2c1OC(=O)c1ccccc1: 1960 nM
16. Oc1ccc2sc(-c3ccccc3O)c(-c3ccc(OCCN4CCCCC4)cc3)c2c1: inactive
17. CCCCNC(=O)Nc1ccc2c(c1)N(C)C(=O)c1ccccc1S2: 4080 nM
18. COc1ccc(C(C(=O)NCc2ccccc2)n2c(=O)c(-c3ccco3)nc3ccccc32)cc1 (stereo not given): 2220 nM
19. Cc1cccc(C)c1OCc1cn(CC(=O)c2ccc(O)cc2)nn1: 2830 nM
20. O=C1NC(=O)N(Cc2ccccc2)C(=O)/C1=C\C=C\c1ccco1: 1320 nM
21. CC(C)(C)NC(=O)C(c1cccc2ccccc12)n1c(=O)c(-c2ccco2)nc2ccccc21 (stereo not given): 2390 nM
22. CC(c1nc2ccccc2[nH]1)n1c(=O)c(-c2ccco2)nc2ccccc21 (stereo not given): 2760 nM
23. O=C(C[n+]1cccc(CNC(=O)c2ccc(OC(F)F)cc2)c1)Nc1cccc(C(F)(F)F)c1: inactive
24. CCC(c1nc2ccccc2[nH]1)n1c(=O)c(-c2ccco2)nc2ccccc21 (stereo not given): 3110 nM
25. Cc1cc(C)c(NC(=O)CN2CCN3CCCC3C2)c(C)c1 (stereo not given): 9270 nM
